Measured values drawn from paper PMC11855086 for this set.

- System: E. coli R4 (ATCC 39543)
- ASSAY_TEXT: MIC and MBC, microtiter plate technique
- Assay type: cell-based
- RUN_PARAMETERS: Escherichia coli, ATCC39543, 24 h
Classify: 1 when MIC is strictly less than 1 µM; 0 when MIC is not.

| COMPOUND | TARGET_DESC | GROUP_LABEL |
| --- | --- | --- |
| CC(=O)N(C1CCCCC1)C(C(=O)NCc1ccc(F)cc1)c1ccc(O)c(O)c1 (centres unmarked) | E. coli R4 (ATCC 39543) | 0 |
| CC(=O)N(C1CCCCC1)C(C(=O)NCc1ccccc1)c1ccc(O)c(O)c1 (centres unmarked) | E. coli R4 (ATCC 39543) | 1 |
| O=C(NCc1ccccc1)C(c1ccc(O)c(O)c1)N(C(=O)Cc1ccccc1)C1CCCCC1 (centres unmarked) | E. coli R4 (ATCC 39543) | 0 |
| CCCCN(C(C)=O)C(C(=O)NCc1ccccc1)c1ccc(O)c(O)c1 (centres unmarked) | E. coli R4 (ATCC 39543) | 0 |
| COc1ccc(CN(C(C)=O)C(C(=O)NCc2ccccc2)c2ccc(O)c(O)c2)cc1 (centres unmarked) | E. coli R4 (ATCC 39543) | 0 |
| O=Cc1ccc(O)c(O)c1 [Compound 1, 3,4-dihydroxybenzaldehyde, reference compound] | E. coli R4 (ATCC 39543) | 0 |
| CCCCN(C(C)=O)C(C(=O)NCc1ccc(OC)cc1)c1ccc(O)c(O)c1 (centres unmarked) | E. coli R4 (ATCC 39543) | 0 |
| COc1ccc(CNC(=O)C(c2ccc(O)c(O)c2)N(C(=O)Cc2ccccc2)C2CCCCC2)cc1 (centres unmarked) | E. coli R4 (ATCC 39543) | 0 |
| COc1ccc(CN(C(=O)Cc2ccccc2)C(C(=O)NCc2ccccc2)c2ccc(O)c(O)c2)cc1 (centres unmarked) | E. coli R4 (ATCC 39543) | 1 |
| COc1ccc(CN(C(C)=O)C(C(=O)NCc2ccc(F)cc2)c2ccc(O)c(O)c2)cc1 (centres unmarked) | E. coli R4 (ATCC 39543) | 0 |
| COc1ccc(CNC(=O)C(c2ccc(O)c(O)c2)N(C(C)=O)C2CCCCC2)cc1 (centres unmarked) | E. coli R4 (ATCC 39543) | 0 |
